Please respond with reported IC50 for every item in the list.
The answer is to be given in nM; state only the numeric part.

Give the reported IC50 for COC(=O)C1=C(c2ccc(Cl)cc2)CC2CCC1O2 (configuration not stated) (system: Sodium-dependent dopamine transporter (Homo sapiens, UniProt Q01959)).
Sequence (Q01959 whole entry): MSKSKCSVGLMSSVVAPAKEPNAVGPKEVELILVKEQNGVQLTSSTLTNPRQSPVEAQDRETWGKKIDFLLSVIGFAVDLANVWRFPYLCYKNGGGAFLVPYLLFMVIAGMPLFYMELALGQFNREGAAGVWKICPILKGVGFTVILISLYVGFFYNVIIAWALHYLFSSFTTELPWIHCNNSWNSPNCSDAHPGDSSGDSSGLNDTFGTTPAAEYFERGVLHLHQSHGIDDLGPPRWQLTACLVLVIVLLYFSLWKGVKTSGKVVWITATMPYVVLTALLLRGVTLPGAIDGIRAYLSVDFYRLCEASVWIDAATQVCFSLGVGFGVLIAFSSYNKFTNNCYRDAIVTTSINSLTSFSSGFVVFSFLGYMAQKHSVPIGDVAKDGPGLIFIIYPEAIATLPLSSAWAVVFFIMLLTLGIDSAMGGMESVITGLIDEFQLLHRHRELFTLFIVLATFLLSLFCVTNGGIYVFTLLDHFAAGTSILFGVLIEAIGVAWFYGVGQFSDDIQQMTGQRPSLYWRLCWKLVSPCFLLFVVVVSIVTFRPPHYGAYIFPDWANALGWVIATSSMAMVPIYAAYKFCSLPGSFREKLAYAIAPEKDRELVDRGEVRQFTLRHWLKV
238

Recall the recorded IC50 for COC(=O)C1=C(c2ccc(I)cc2)CC2CCC1S2 (configuration not stated) with Sodium-dependent dopamine transporter (Homo sapiens, UniProt Q01959) and state it.
6.7

Form: Entry = COC(=O)C1=C(c2ccc(Cl)cc2)CC2CCC1S2 (configuration not stated) | System = Sodium-dependent dopamine transporter (Homo sapiens, UniProt Q01959) | IC50 = ____
13

Kindly state the measured IC50 obtained for COC(=O)C1=C(c2ccc(F)cc2)CC2CCC1S2 (configuration not stated) with Sodium-dependent dopamine transporter (Homo sapiens, UniProt Q01959).
220

Field: IC50 (Sodium-dependent dopamine transporter (Homo sapiens, UniProt Q01959)). Entry: COC(=O)C1=C(c2ccc3ccccc3c2)CC2CCC1S2 (configuration not stated)
8

For Sodium-dependent dopamine transporter (Homo sapiens, UniProt Q01959), provide IC50 of COC(=O)C1=C(c2ccc(F)cc2)CC2CCC1O2 (configuration not stated) please.
2730

Please tell me: IC50 of COC(=O)C1=C(c2ccc(Br)cc2)CC2CCC1O2 (configuration not stated) , system Sodium-dependent dopamine transporter (Homo sapiens, UniProt Q01959)?
62
